- EXPERIMENT: protease stability score; higher = more stable; yeast display proteolysis, trypsin and chymotrypsin;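 also: relative to predicted unfolded state with 0 unfolded-like and 1 meaning tenfold more protease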
OBSERVABLE: protease stability score
Write the number on its own, no unit after it.

Worked cases, answers included:
Q: Tell me the measured protease stability score of "DEDKKELEEMFRILKEMWETGDWREESRMVDPHARVDINGVELHGREFIMEHIHRVKNMRFEIKRFDVVNGVLEIVGELHQGDKKHRVTIHALKFDGKWLQETVIIG" , please.
Ans: 1.6

Q: Tell me the measured protease stability score of "DEHEEKIHFILHILQEAWRTGDESQLENLLDPNVRIIIGDKKTHGREAVINLFNHWRVENIRVHLRDVRVQGDKIHLETEIQVDGNVNGKTDRIEFETEFIIRKVDGRWLIEVIRMH" , please.
Ans: 2.17

Proceed to the following item.
Q: Tell me the measured protease stability score of "HEEEELLERVIRLMVENIITGNEDQLNNLVDPHAKIDIDGVILHGRDWVRDLHERVDHMEVRITDWRMIGDKVQTDSRLTNRFNGKEYRRDVRFHAHKINGRWINQTIEIR" , please.
Ans: 0.722
